Data provenance: patent US20240239790A1

experiment: Pharmacokinetic study in mice (IV and PO), plasma; type: in vivo, mouse; settings: mouse plasma, IV, 3 mg/kg
Classify as follows. Reported Cl_obs greater than or equal to 10 mL/min/kg: t. Reported Cl_obs below: f.

Sample answers from the record:
{"structureString": "CN1CCN(CCOc2cnc(N[C@H]3CC[C@@H](Oc4nc(N5CCOCC5)cc5ncccc45)CC3)nc2)CC1", "labelValue": "t"}
{"structureString": "CN(C)C(=O)Cn1ccc2nc(N[C@H]3CC[C@@H](Oc4nc(N5CCOCC5)cc5ncccc45)CC3)ncc21", "labelValue": "t"}
{"structureString": "O=C(COc1cnc(N[C@H]2CC[C@@H](Oc3nc(N4CCOCC4)cc4ncccc34)CC2)nc1)N1CCC1", "labelValue": "f"}

Reported Cl_obs at or above 10 mL/min/kg? "CN(C)C(=O)Cn1c(=O)n(C2CCOCC2)c2nc(N[C@H]3CC[C@@H](Oc4nc(N5CCOCC5)cc5ncccc45)CC3)ncc21" t

Reported Cl_obs at or above 10 mL/min/kg? "O=C(COc1cnc(N[C@H]2CC[C@@H](Oc3nc(N4CCOCC4)cc4ncccc34)CC2)nc1)N1CCOCC1" f
